tested.system: Sentrin-specific protease 6 (Homo sapiens);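 also: Luminescence-based dose-response confirmatory assay of SENP6 inhibition, following up an ultra-high-throughput screen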
Sequence (Q9GZR1 whole entry): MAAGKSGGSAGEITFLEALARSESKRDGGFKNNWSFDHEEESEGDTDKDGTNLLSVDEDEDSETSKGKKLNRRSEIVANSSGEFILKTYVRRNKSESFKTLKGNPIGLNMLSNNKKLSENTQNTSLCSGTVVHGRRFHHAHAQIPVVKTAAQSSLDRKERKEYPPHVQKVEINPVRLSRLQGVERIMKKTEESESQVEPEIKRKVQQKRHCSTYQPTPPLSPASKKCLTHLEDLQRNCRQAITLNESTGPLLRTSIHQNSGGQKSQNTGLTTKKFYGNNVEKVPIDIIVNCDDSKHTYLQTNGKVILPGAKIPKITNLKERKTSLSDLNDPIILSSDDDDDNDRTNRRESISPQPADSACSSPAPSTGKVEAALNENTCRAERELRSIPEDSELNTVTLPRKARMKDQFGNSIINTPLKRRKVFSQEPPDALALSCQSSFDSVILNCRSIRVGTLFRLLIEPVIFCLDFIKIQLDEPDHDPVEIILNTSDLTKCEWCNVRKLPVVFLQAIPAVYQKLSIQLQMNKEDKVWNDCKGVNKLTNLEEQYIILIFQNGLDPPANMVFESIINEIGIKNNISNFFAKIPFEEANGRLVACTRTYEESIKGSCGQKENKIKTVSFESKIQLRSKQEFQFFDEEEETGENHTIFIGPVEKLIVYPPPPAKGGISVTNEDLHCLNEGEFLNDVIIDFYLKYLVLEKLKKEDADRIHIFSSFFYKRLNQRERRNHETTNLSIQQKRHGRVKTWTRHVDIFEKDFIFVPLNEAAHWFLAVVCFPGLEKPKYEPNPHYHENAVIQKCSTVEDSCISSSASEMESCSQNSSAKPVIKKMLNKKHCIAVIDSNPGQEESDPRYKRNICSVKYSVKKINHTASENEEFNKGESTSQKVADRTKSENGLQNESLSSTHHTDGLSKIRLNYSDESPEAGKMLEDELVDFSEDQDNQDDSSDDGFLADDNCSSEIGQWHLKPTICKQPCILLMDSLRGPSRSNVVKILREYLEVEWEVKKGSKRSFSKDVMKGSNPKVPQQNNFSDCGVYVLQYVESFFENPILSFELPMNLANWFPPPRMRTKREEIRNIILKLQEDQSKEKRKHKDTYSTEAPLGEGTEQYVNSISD
Format: functional
Active and inactive are the calls of the source.
Provide the recorded IC50 for the entries that follow.

compound=N#Cc1c(NC(=O)c2ccc(Br)o2)n(-c2ccccc2)c2nc3ccccc3nc12 assay_value="2.03 µM (active)"
compound=CCOc1ccc(/N=C/c2c(O)oc3ccccc3c2=O)cc1 assay_value="26.2 µM (active)"
compound=Fc1ccccc1CSc1nnc(-c2ccccc2)o1 assay_value="36.1 µM (active)"
compound=CCc1cccc2c(C(=O)COC(=O)c3ccccc3)c[nH]c12 assay_value="> 100 µM (inactive)"

# context switch: different compound, same IC50
# query: IC50 of entry COc1ccc(NC(=O)c2ccc(OCC3CCCO3)cc2)cc1Cl (stereo not given) > 100 µM (inactive)
